Origin of values: patent US12421253B2

- Target Of Assay: KRas^G12R (Homo sapiens, UniProt P01116, G12R)
- Construct: […]; biotin (biotinylated); purchased Accelegan Inc
- Sequence (P01116 1-169 isoform P01116-2 G12R): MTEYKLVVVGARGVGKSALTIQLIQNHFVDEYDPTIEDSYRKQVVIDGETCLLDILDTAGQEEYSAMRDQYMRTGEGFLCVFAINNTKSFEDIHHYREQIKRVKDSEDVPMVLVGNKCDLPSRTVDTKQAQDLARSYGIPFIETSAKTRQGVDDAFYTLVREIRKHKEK
- Experiment Description: KRas binding assay (TR-FRET displacement of Cy5 labelled tracer)
pIC50: −log10 of the molar value.
Readout: pIC50

Look over these answered cases.
compound="CCc1cccc2cccc(N3CCc4c(nc(OCC56CCCN5CCC6)nc4N4CCCC(N5CC(C)CS5(=O)=O)C4)C3)c12 (stereo not drawn)" readout=pIC50 measured_result=6.51
compound="CCc1cccc2cccc(N3CCc4c(nc(OCC56CCCN5CCC6)nc4N4CCCC(c5n[nH]c(C)n5)C4)C3)c12 (stereo not drawn)" readout=pIC50 measured_result=6.63
compound=CCc1cccc2cccc(N3CCc4c(nc(OCC56CCCN5CCC6)nc4N(C)Cc4c[nH]nn4)C3)c12 readout=pIC50 measured_result=5.87

(a) CCc1cccc2cccc(N3CCc4c(nc(OCC56CCCN5CCC6)nc4N4CC5(CNC(=O)N5)C4)C3)c12
(b) CCc1cccc2cccc(N3CCc4c(nc(OCC56CCCN5CCC6)nc4N(C)CC(C)(C)O)C3)c12
Enquiry: // compare: a vs b , metric pIC50, want the smaller Mark your answer with the label of the selected entry.
Return: a
(a: 5.74, b: 6.12)

(A) CCc1cccc2cccc(N3CCc4c(nc(OCC56CCCN5CCC6)nc4N4CCCC(C(C)O)C4)C3)c12 (stereo not drawn)
(B) CCc1cccc2cccc(N3CCc4c(nc(OCC56CCCN5CCC6)nc4N4CCOC5(CCSC5)C4)C3)c12 (stereo not drawn)
(C) CCc1cccc2cccc(N3CCc4c(nc(OCC56CCCN5CCC6)nc4N4CCOCC(n5cccn5)C4)C3)c12 (stereo not drawn)
(D) Oc1cc(N2CCc3c(nc(OC[C@@]45CCCN4C[C@H](F)C5)nc3N3CCOCC(n4cccn4)C3)C2)c2c(Br)c(F)ccc2c1 (stereo partly drawn)
Enquiry: With regard to pIC50, arrange the entries in ascending order, please. I would appreciate it if you listed the labels in the requested order.
Return: B, A, C, D

* * *

- Target Of Assay: KRas^G12D (Homo sapiens, UniProt P01116, G12D)
- Construct: […]; biotin (biotinylated)
- Sequence (P01116 1-169 isoform P01116-2 G12D): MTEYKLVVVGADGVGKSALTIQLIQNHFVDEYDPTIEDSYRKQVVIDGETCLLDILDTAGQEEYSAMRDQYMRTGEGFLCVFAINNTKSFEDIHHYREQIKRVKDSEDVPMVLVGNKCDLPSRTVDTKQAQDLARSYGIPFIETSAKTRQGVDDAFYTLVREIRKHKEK
- Experiment Description: KRas binding assay (TR-FRET displacement of Cy5 labelled tracer)
Readout: IC50

Here is how some molecules turned out for IC50.
molecule="OCC1COCCN(c2nc(OC[C@@]34CCCN3C[C@H](F)C4)nc3c2CCN(c2cc(O)cc4ccc(F)c(Br)c24)C3)C1 (stereo partly shown)" measured_result="≤ 2 nM"
molecule="CCc1c(F)ccc2cc(O)cc(N3CCc4c(nc(OC[C@@]56CCCN5C[C@H](F)C6)nc4N4CCCC5(C4)NC(=O)NC5=O)C3)c12 (stereo partly shown)" measured_result="≤ 2 nM"
molecule="CCc1c(F)ccc2cc(O)cc(N3CCc4c(nc(OC[C@@]56CCCN5C[C@H](F)C6)nc4N4CCCC5(CNC(=O)C5)C4)C3)c12 (stereo partly shown)" measured_result="≤ 2 nM"

// switching to the query molecule
Enquiry: For the molecule CCc1c(F)ccc2cc(O)cc(N3CCc4c(nc(OC[C@@]56CCCN5C[C@H](F)C6)nc4N4CCCC(O)CC4)C3)c12 (stereo partly shown) , what IC50 is on record?
Return: ≤ 2 nM

* * *

- System: PSN1 cells, pERK
- Experiment Description: Inhibition of KRas phosphorylation of ERK (Cisbio HTRF Advanced pERK assay)
- Assay type: cell-based
- Protocol Conditions: Homo sapiens, PSN1, 3 h, read-out: Inhibition (HTRF IC50 nM) of KRas-mediated Phosphorylation of ERK, PSN1
Readout: IC50

Example cases with answers are listed next.
compound=CCc1c(F)ccc2cc(O)cc(N3CCc4c(nc(OC[C@@]56CCCN5C[C@H](F)C6)nc4N4C[C@H]5CC[C@@H](O)[C@H]5C4)C3)c12 readout=IC50 measured_result="≥ 10000 nM"
compound="Oc1cc(N2CCc3c(nc(OC[C@@]45CCCN4C[C@H](F)C5)nc3N3CCCC4(CC(O)C4)C3)C2)c2c(Br)c(F)ccc2c1 (stereo partly drawn)" readout=IC50 measured_result="≥ 10000 nM"

Enquiry: Which IC50 is listed for CCc1c(F)ccc2cc(O)cc(N3CCc4c(nc(OC[C@@]56CCCN5C[C@H](F)C6)nc4N4CCCC(n5cccn5)C4)C3)c12 (stereo partly drawn) ?
Return: ≥ 10000 nM

Enquiry: # IC50 lookup, item CCc1c(F)ccc2cc(O)cc(N3CCc4c(nc(OC[C@@]56CCCN5C[C@H](F)C6)nc4N4CCOCC(O)C4)C3)c12 (stereo partly drawn)
Return: 5810 nM

Enquiry: # input compound: CCc1c(F)ccc2cc(O)cc(N3CCc4c(nc(OC[C@@]56CCCN5C[C@H](F)C6)nc4N4CCCCC(S(C)(=O)=O)C4)C3)c12 (stereo partly drawn) ; wanted: its IC50
Return: ≥ 10000 nM

Enquiry: Request the reported IC50 associated with Nc1cc2n(n1)CCCN(c1nc(OC[C@@]34CCCN3C[C@H](F)C4)nc3c1CCN(c1cc(O)cc4ccc(F)c(Cl)c14)C3)C2
Return: ≥ 10000 nM

* * *

- Test system: HCT116 cells, pERK
- Experiment Description: Inhibition of KRas phosphorylation of ERK (Cisbio HTRF Advanced pERK assay)
- Assay type: cell-based
- Protocol Conditions: Homo sapiens, HCT-116, 3 hrs, read-out: Inhibition (HTRF IC50 nM) of KRas-mediated Phosphorylation of ERK, HCT116
Readout: IC50 (nM)

(A) CCc1c(F)ccc2cc(O)cc(N3CCc4c(nc(OCC5(CN(C)C)CC5)nc4N4C[C@@H]5C(=O)NC(=O)[C@@H]5C4)C3)c12
(B) CCc1c(F)ccc2cc(O)cc(N3CCc4c(nc(OCC5(CN(C)C)CC5)nc4N4CCCn5nc(C(=O)N(C)C)cc5C4)C3)c12
(C) CCc1c(F)ccc2cc(O)cc(N3CCc4c(nc(OCC5(CN(C)C)CC5)nc4N4CCC[C@@](C)(O)C4)C3)c12
Enquiry: Rank the 3 compounds shown above by IC50, smallest number first. List labels; respect the requested ordering.
Return: C, A, B

(1) O=C1NCC2(CCCN(c3nc(OC[C@@]45CCCN4C[C@H](F)C5)nc4c3CCN(c3cc(O)cc5ccc(F)c(Cl)c35)C4)C2)N1 (some centres unmarked)
(2) CCc1c(F)ccc2cc(O)cc(N3CCc4c(nc(OCC56CCCN5CCC6)nc4N4CCCn5nc(C(=O)N(C)C)cc5C4)C3)c12
(3) CN(C)C(=O)c1cc2n(n1)CCCN(c1nc(OC[C@@]34CCCN3C[C@H](F)C4)nc3c1CCN(c1cc(O)cc4ccc(F)c(Cl)c14)C3)C2
Enquiry: Arrange these 3 compounds in increasing order of IC50. Please list each label once, in the requested order.
Return: 1, 2, 3
(1: 405 nM, 2: 1120 nM, 3: 1980 nM)

(P) CN(C)C(=O)c1cc2n(n1)CCCN(c1nc(OC[C@@]34CCCN3C[C@H](F)C4)nc3c1CCN(c1cc(O)cc4ccc(F)c(Br)c14)C3)C2
(Q) CCc1c(F)ccc2cc(O)cc(N3CCc4c(nc(OC[C@@H]5CCCN5C)nc4N4CCCn5nc(C(=O)N(C)C)cc5C4)C3)c12
Enquiry: Smaller IC50 value? Options are P and Q Record your answer as the label of the chosen record.
Return: P

* * *

- Target Of Assay: KRas^G12A (Homo sapiens, UniProt P01116, G12A)
- Construct: […]; biotin (biotinylated); purchased Accelegan Inc
- Sequence (P01116 1-169 isoform P01116-2 G12A): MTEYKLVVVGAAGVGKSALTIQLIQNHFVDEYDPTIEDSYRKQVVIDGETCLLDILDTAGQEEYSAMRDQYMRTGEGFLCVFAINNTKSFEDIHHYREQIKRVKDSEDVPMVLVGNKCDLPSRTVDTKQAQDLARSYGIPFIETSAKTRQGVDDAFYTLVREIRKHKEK
- Experiment Description: KRas binding assay (TR-FRET displacement of Cy5 labelled tracer)
Readout: IC50 (nM)

molecule="CCc1cccc2cccc(N3CCc4c(nc(OCC56CCCN5CCC6)nc4N4CCC(c5[nH]ncc5N)C4)C3)c12 (stereo not drawn)" readout=IC50 measured_result=448

(P) CCc1cccc2cccc(N3CCc4c(nc(OCC56CCCN5CCC6)nc4N4CCCC(c5c[nH]cn5)C4)C3)c12 (stereo not drawn)
(Q) CCc1cccc2cccc(N3CCc4c(nc(OCC56CCCN5CCC6)nc4N4CCCn5nc(CO)cc5C4)C3)c12
Enquiry: Which entry has a larger number for IC50, P or Q ? Mark your answer with the label of the selected entry.
Return: P
(P: 1160 nM, Q: 316 nM)

* * *

- Target Of Assay: KRas^G12S (Homo sapiens, UniProt P01116, G12S)
- Construct: […]; biotin (biotinylated)
- Sequence (P01116 1-169 isoform P01116-2 G12S): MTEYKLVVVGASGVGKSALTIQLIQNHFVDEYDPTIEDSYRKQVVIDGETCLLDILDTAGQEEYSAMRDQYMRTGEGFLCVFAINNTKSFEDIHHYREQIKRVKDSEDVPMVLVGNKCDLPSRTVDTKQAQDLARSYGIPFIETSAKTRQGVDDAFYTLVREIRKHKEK
- Experiment Description: KRas binding assay (TR-FRET displacement of Cy5 labelled tracer)
Readout: IC50 (nM)

molecule="CCc1cccc2cccc(N3CCc4c(nc(OCC56CCCN5CCC6)nc4N4CCCCC(C)C4)C3)c12 (stereo not drawn) [Example 119]" readout=IC50 unit_of_measure=nM measured_result=797

(P) CCc1cccc2cccc(N3CCc4c(nc(OCC56CCCN5CCC6)nc4NCc4nc5ncccc5o4)C3)c12 [Example 157]
(Q) CCc1cccc2cccc(N3CCc4c(nc(OCC56CCCN5CCC6)nc4N4CCCC(c5n[nH]c(C6CC6)n5)C4)C3)c12 (stereo not drawn) [Example 108]
(R) CCc1cccc2cccc(N3CCc4c(nc(OCC56CCCN5CCC6)nc4N4CCOCC(C)(O)C4)C3)c12 (stereo not drawn) [Example 22]
(S) CCc1cccc2cccc(N3CCc4c(nc(OCC56CCCN5CCC6)nc4N4CCCC(c5nc(C)no5)C4)C3)c12 (stereo not drawn) [Example 162]
(T) CCc1cccc2cccc(N3CCc4c(nc(OCC56CCCN5CCC6)nc4N4CCCCCC(S(C)(=O)=O)C4)C3)c12 (stereo not drawn) [Example 14]
Enquiry: Order by IC50, ascending. # the answer lists labels in the order requested
Return: R, T, Q, S, P
(R: 89 nM, T: 171 nM, Q: 975 nM, S: 3430 nM, P: 10600 nM)
